# credit: ChEMBL document CHEMBL3885881

- Species: Rattus norvegicus
- Test details: DrugMatrix - Regimen: Daily Repeat
- Format: toxicity, organism-based, Sprague-Dawley
- Set-up: regimen Daily Repeat, gender Male, age 6-8 weeks
- Applied conditions: in vivo, iv, 0 mg/kg, 72 h, tissue Blood, dose level Control, time 3 day, vehicle 100 % SALINE
Endpoint: LEUKOCYTE COUNT (x10E3/uL)
Number in x10E3/uL, nothing else.

Query block: Dear colleague, please send me the reported LEUKOCYTE COUNT for CC(=O)N[C@@H]1[C@H](Oc2c3cc4cc2Oc2ccc(cc2Cl)[C@@H](O[C@@H]2O[C@@H](CO)[C@@H](O)[C@H](O)[C@@H]2NC(C)=O)[C@@H]2NC(=O)[C@H](NC(=O)[C@@H]4NC(=O)[C@H]4NC(=O)[C@@H](Cc5ccc(c(Cl)c5)O3)NC(=O)[C@H](N)c3ccc(O)c(c3)Oc3cc(O)cc4c3)c3ccc(O)c(c3)-c3c(O[C@H]4O[C@H](CO)[C@@H](O)[C@@H](O)[C@@H]4O)cc(O)cc3[C@@H](C(=O)O)NC2=O)O[C@@H](CO)[C@@H](O)[C@@H]1O when you can.
Result block: 18.18

Query block: Dear colleague, please send me the reported LEUKOCYTE COUNT for COc1cccc2c1C(=O)c1c(O)c3c(c(O)c1C2=O)C[C@@](O)(C(=O)CO)C[C@@H]3O[C@H]1C[C@H](N)[C@H](O)[C@H](C)O1 [DOXORUBICIN] when you can.
Result block: 8.47

Query block: Dear colleague, please send me the reported LEUKOCYTE COUNT for CCC1=C[C@@H]2CN(C1)Cc1c([nH]c3ccccc13)[C@@](C(=O)OC)(c1cc3c(cc1OC)N(C)[C@H]1[C@@](O)(C(=O)OC)[C@H](OC(C)=O)[C@]4(CC)C=CCN5CC[C@]31[C@@H]54)C2 [VINORELBINE] when you can.
Result block: 10.33

Query block: Dear colleague, please send me the reported LEUKOCYTE COUNT for COc1cccc2c1C(=O)c1c(O)c3c(c(O)c1C2=O)C[C@@](O)(C(=O)CO)C[C@@H]3O[C@H]1C[C@H](N)[C@@H](O)[C@H](C)O1 [EPIRUBICIN] when you can.
Result block: 14.37

Query block: Dear colleague, please send me the reported LEUKOCYTE COUNT for CC[C@]1(O)C[C@@H]2CN(CCc3c([nH]c4ccccc34)[C@@](C(=O)OC)(c3cc4c(cc3OC)N(C)[C@H]3[C@@](O)(C(=O)OC)[C@H](OC(C)=O)[C@]5(CC)C=CCN6CC[C@]43[C@@H]65)C2)C1 [VINBLASTINE] when you can.
Result block: 11.08

---

- Organism: Rattus norvegicus
- Test details: DrugMatrix - Regimen: Daily Repeat
- Format: toxicity, organism-based, Sprague-Dawley
- Parameters: regimen Daily Repeat, gender Male, age 6-8 weeks
- Applied conditions: in vivo, iv, 0 mg/kg, 120 h, tissue Blood, dose level Control, time 5 day, vehicle 100 % SALINE
Endpoint: HEMATOCRIT (%)
Number in %, nothing else.

Query block: Dear colleague, please send me the reported HEMATOCRIT for COc1cccc2c1C(=O)c1c(O)c3c(c(O)c1C2=O)C[C@@](O)(C(=O)CO)C[C@@H]3O[C@H]1C[C@H](N)[C@H](O)[C@H](C)O1 [DOXORUBICIN] when you can.
Result block: 34.77

Query block: Dear colleague, please send me the reported HEMATOCRIT for CCC1=C[C@@H]2CN(C1)Cc1c([nH]c3ccccc13)[C@@](C(=O)OC)(c1cc3c(cc1OC)N(C)[C@H]1[C@@](O)(C(=O)OC)[C@H](OC(C)=O)[C@]4(CC)C=CCN5CC[C@]31[C@@H]54)C2 [VINORELBINE] when you can.
Result block: 36.7

Query block: Dear colleague, please send me the reported HEMATOCRIT for COc1cccc2c1C(=O)c1c(O)c3c(c(O)c1C2=O)C[C@@](O)(C(=O)CO)C[C@@H]3O[C@H]1C[C@H](N)[C@@H](O)[C@H](C)O1 [EPIRUBICIN] when you can.
Result block: 36.68

Query block: Dear colleague, please send me the reported HEMATOCRIT for CC[C@]1(O)C[C@@H]2CN(CCc3c([nH]c4ccccc34)[C@@](C(=O)OC)(c3cc4c(cc3OC)N(C)[C@H]3[C@@](O)(C(=O)OC)[C@H](OC(C)=O)[C@]5(CC)C=CCN6CC[C@]43[C@@H]65)C2)C1 [VINBLASTINE] when you can.
Result block: 37.42

Query block: Dear colleague, please send me the reported HEMATOCRIT for CC(=O)N[C@@H]1[C@H](Oc2c3cc4cc2Oc2ccc(cc2Cl)[C@@H](O[C@@H]2O[C@@H](CO)[C@@H](O)[C@H](O)[C@@H]2NC(C)=O)[C@@H]2NC(=O)[C@H](NC(=O)[C@@H]4NC(=O)[C@H]4NC(=O)[C@@H](Cc5ccc(c(Cl)c5)O3)NC(=O)[C@H](N)c3ccc(O)c(c3)Oc3cc(O)cc4c3)c3ccc(O)c(c3)-c3c(O[C@H]4O[C@H](CO)[C@@H](O)[C@@H](O)[C@@H]4O)cc(O)cc3[C@@H](C(=O)O)NC2=O)O[C@@H](CO)[C@@H](O)[C@@H]1O when you can.
Result block: 37.42

Query block: Dear colleague, please send me the reported HEMATOCRIT for CCc1c2c(nc3ccc(OC(=O)N4CCC(N5CCCCC5)CC4)cc13)-c1cc3c(c(=O)n1C2)COC(=O)[C@]3(O)CC [IRINOTECAN] when you can.
Result block: 36.68
